Origin of the recorded values: patent US11076595B2

Kindly state weed suppression rate, Echinochloa crus-galli for each of the entries shown.
- System: Echinochloa crus-galli
- ASSAY_NAME: Test Example 1: herbicidal effect test by soil treatment in paddy field
- Type: in vivo
- TEST_CONDITIONS: 120 g/10a, paddy soil treatment just after sowing, 14 days after treatment
Lab book: enter the figure in %, no units written.

Q: Looking for the measured weed suppression rate, Echinochloa crus-galli of "Cc1cc(F)ccc1N(C(=O)n1ncn(S(=O)(=O)C2CCCCC2)c1=O)C(C)C" , can you help?
Result: 100

Q: What do you get for "CC(C)N(C(=O)n1ncn(S(=O)(=O)C2CC2)c1=O)c1ccc(C(F)(F)F)cc1F" ?
Result: 100

Q: What do you get for "CC(C)N(C(=O)n1ncn(S(=O)(=O)C2CCCCC2)c1=O)c1ccccc1F" ?
Result: 90

Q: What do you get for "CC(C)N(C(=O)n1ncn(S(=O)(=O)C2CCCCC2)c1=O)c1c(F)cc(F)cc1F" ?
Result: 100

Q: What do you get for "Cc1ccc(N(C(=O)n2ncn(S(=O)(=O)C(C)C)c2=O)C(C)C)c(Cl)c1" ?
Result: 90

Q: What do you get for "Cc1cc(N(C(=O)n2ncn(S(=O)(=O)C3CC3)c2=O)C(C)C)no1" ?
Result: 90

Q: What do you get for "CC(C)N(C(=O)n1ncn(S(=O)(=O)C2CC2)c1=O)c1c(F)c(F)cc(F)c1F" ?
Result: 100

Q: What do you get for "CC(C)N(C(=O)n1ncn(S(=O)(=O)N(C)C)c1=O)c1cccnc1F" ?
Result: 90

Q: What do you get for "CC(C)N(C(=O)n1ncn(S(=O)(=O)N(C)C)c1=O)c1ccc(F)cc1F" ?
Result: 90

Q: What do you get for "CC(C)N(C(=O)n1ncn(S(=O)(=O)C(C)C)c1=O)c1ccc(Cl)nc1Cl" ?
Result: 100

Q: What do you get for "CC(C)N(C(=O)n1ncn(S(=O)(=O)C2CC2)c1=O)c1ccccc1F" ?
Result: 100

Q: What do you get for "Cc1ccc(N(C(=O)n2ncn(S(=O)(=O)C(C)C)c2=O)C(C)C)c(F)c1" ?
Result: 90

Q: What do you get for "CC(C)N(C(=O)n1ncn(S(=O)(=O)C2CC2)c1=O)c1ccc(Cl)nc1" ?
Result: 100

Q: What do you get for CC(C)N(C(=O)n1ncn(S(=O)(=O)C(C)C)c1=O)c1cccnc1F [Compound 1-241] ?
Result: 100

Q: What do you get for "Cc1nn(C(=O)N(c2ccc(F)cc2F)C(C)C)c(=O)n1S(=O)(=O)C1CC1" ?
Result: 90

Q: What do you get for "Cc1cc(C)c(S(=O)(=O)n2cnn(C(=O)N(c3cccnc3F)C(C)C)c2=O)c(C)c1" ?
Result: 90

----------
- Test system: Lindernia pyxidaria
- ASSAY_NAME: Test Example 12: herbicidal effect test by treatment during growing period in paddy field
- Assay type: in vivo
- TEST_CONDITIONS: 120 g/10a; treatment seven days after sowing in flooded paddy pot; assessed 14 days after treatment
QUANTITY: Weed suppression rate (%) Lindemia pyxidaria

Q: Looking for the measured Weed suppression rate (%) Lindemia pyxidaria of "CC(C)N(C(=O)n1cnn(S(=O)(=O)N(C)C)c1=O)c1ccc(F)cc1" , can you help?
Result: 80%

Q: What do you get for "CN(C(=O)n1cnn(S(=O)(=O)c2cccs2)c1=O)c1ccc(F)cc1F" ?
Result: 70%

Q: What do you get for "CC(C)N(C(=O)n1cnn(S(=O)(=O)C(C)C)c1=O)c1ccc(F)cc1Cl" ?
Result: 80%

Q: What do you get for "CC(C)N(C(=O)n1cnn(S(=O)(=O)c2ccccc2Cl)c1=O)c1ccc(F)c(F)c1F" ?
Result: 70%

----------
Kindly state Weed suppression rate (%) Monochoria vaginalis for each of the entries shown.
- System: Monochoria vaginalis
- ASSAY_NAME: Test Example 12: herbicidal effect test by treatment during growing period in paddy field
- Format: in vivo
- TEST_CONDITIONS: 120 g/10a; treatment seven days after sowing in flooded paddy pot; assessed 14 days after treatment
- Method: This test was performed with two replications per one formulation concentration plot, and 14 days after the formulation treatments, the weed suppression rate (%) was determined according to the following equation (Math. 2). Weed suppression rate (%)=(1−average dry weight (g) of plants in treated plots/average dry weight (g) of plants in untreated plots)×100 [Math. 2] […]
Lab book: enter the figure in %, no units written.

Q: Looking for the measured Weed suppression rate (%) Monochoria vaginalis of "CC(C)N(C(=O)n1cnn(S(=O)(=O)c2ccccc2F)c1=O)c1ccc(C(F)(F)F)cc1F" , can you help?
Result: 80

Q: What do you get for "CC(C)N(C(=O)n1cnn(S(=O)(=O)N(C)C)c1=O)c1ccc(Cl)cc1Br" ?
Result: 30

Q: What do you get for "Cc1ccc(S(=O)(=O)n2ncn(C(=O)N(c3c(F)cccc3F)C(C)C)c2=O)cc1" ?
Result: 70

Q: What do you get for "CCN(CC)C(=O)n1cnn(S(=O)(=O)c2ccccc2C(F)(F)F)c1=O" ?
Result: 40

----------
- Test system: Scirpus juncoides
- ASSAY_NAME: Test Example 2: herbicidal effect test by treatment during growing period in paddy field
- Assay type: in vivo
- TEST_CONDITIONS: treatment 7 days after sowing, 120 g/10a, evaluated 14 days after treatment
QUANTITY: weed suppression rate, Scirpus juncoides (%)
Lab book: enter the figure in %, no units written.

Q: Looking for the measured weed suppression rate, Scirpus juncoides of "CC(C)N(C(=O)n1ncn(S(=O)(=O)C2CCCCC2)c1=O)c1ccccc1" , can you help?
Result: 90

Q: What do you get for CCC(C)S(=O)(=O)n1cnn(C(=O)N(c2ccc(F)cc2F)C(C)C)c1=O (centres unmarked) ?
Result: 90

Q: What do you get for "CCN(C)S(=O)(=O)n1cnn(C(=O)N(c2ccc(F)cc2F)C(C)C)c1=O" ?
Result: 90

Q: What do you get for "CC(C)N(C(=O)n1ncn(S(=O)(=O)C2CC2)c1=O)c1ccc(Cl)nc1Cl" ?
Result: 90

Q: What do you get for "CC(C)N(C(=O)n1ncn(S(=O)(=O)C2CCCCC2)c1=O)c1c(F)cc(F)cc1F" ?
Result: 100

Q: What do you get for "Cc1cc(N(C(=O)n2ncn(S(=O)(=O)C(C)C)c2=O)C(C)C)no1" ?
Result: 90

Q: What do you get for "CC(C)N(C(=O)n1ncn(S(=O)(=O)C2CCCCC2)c1=O)c1ccc(F)cc1F" ?
Result: 90

Q: What do you get for "Cc1ccc(N(C(=O)n2ncn(S(=O)(=O)N(C)C)c2=O)C(C)C)c(F)c1" ?
Result: 90

Q: What do you get for "C=CS(=O)(=O)n1cnn(C(=O)N(c2ccc(F)cc2F)C(C)C)c1=O" ?
Result: 90

Q: What do you get for "CC(C)N(C(=O)n1ncn(S(=O)(=O)c2cccs2)c1=O)c1ccc(F)cc1" ?
Result: 90

Q: What do you get for "CC(C)N(C(=O)n1ncn(S(=O)(=O)C2CC2)c1=O)c1c(F)cccc1F" ?
Result: 100

----------
- System: Amaranthus viridis
- ASSAY_NAME: Test Example 14: herbicidal effect test by foliage treatment in upland field
- Format: in vivo
- TEST_CONDITIONS: 7 days after sowing, 120 g/10a, 14 days after treatment
QUANTITY: herbicidal effect, Amaranthus viridis (%)
Lab book: enter the figure in %, no units written.

Q: Looking for the measured herbicidal effect, Amaranthus viridis of "CC(C)N(C(=O)n1cnn(S(=O)(=O)N2CCCCC2)c1=O)c1ccc(F)cc1F" , can you help?
Result: 90

Q: What do you get for "Cc1ccc(S(=O)(=O)n2ncn(C(=O)N(c3ccc(Cl)cn3)C(C)C)c2=O)cc1" ?
Result: 0

Q: What do you get for "CCN(C)S(=O)(=O)n1ncn(C(=O)N(c2ccc(F)cc2F)C(C)C)c1=O" ?
Result: 90

Q: What do you get for "CC(C)N(C(=O)n1cnn(S(=O)(=O)C2CC2)c1=O)c1ccccc1F" ?
Result: 90

Q: What do you get for "CC(C)N(C(=O)n1cnn(S(=O)(=O)C2CC2)c1=O)c1ccc(Cl)cc1F" ?
Result: 60

Q: What do you get for "COc1ccc(S(=O)(=O)n2ncn(C(=O)N(c3cccc(F)c3F)C(C)C)c2=O)cc1" ?
Result: 30

Q: What do you get for "CC(C)N(Cc1ccc(F)cc1F)C(=O)n1cnn(S(=O)(=O)c2cccs2)c1=O" ?
Result: 60

Q: What do you get for "CC(C)N(C(=O)n1cnn(S(=O)(=O)c2ccccc2F)c1=O)c1ccccc1" ?
Result: 40

Q: What do you get for "Cc1cc(C)c(S(=O)(=O)n2ncn(C(=O)N(c3ccc(F)cc3Cl)C(C)C)c2=O)c(C)c1" ?
Result: 90

Q: What do you get for "CC(C)N(C(=O)n1cnn(S(=O)(=O)C2CC2)c1=O)c1ncc(Cl)cc1Cl" ?
Result: 90

Q: What do you get for "CC(C)N(C(=O)n1cnn(S(=O)(=O)C2CCCCC2)c1=O)c1c(F)c(F)cc(F)c1F" ?
Result: 60

Q: What do you get for "CC(C)N(C(=O)n1cnn(S(=O)(=O)c2cccs2)c1=O)c1c(F)cc(F)cc1F" ?
Result: 30

Q: What do you get for "CCS(=O)(=O)n1ncn(C(=O)N(c2c(F)cccc2F)C(C)C)c1=O" ?
Result: 50

Q: What do you get for "C=CS(=O)(=O)n1ncn(C(=O)N(c2ccc(F)cc2F)C(C)C)c1=O" ?
Result: 40

Q: What do you get for "CC(C)N(C(=O)n1cnn(S(=O)(=O)C2CC2)c1=O)c1c(F)cccc1F" ?
Result: 60

Q: What do you get for "CC(C)N(C(=O)n1cnn(S(C)(=O)=O)c1=O)c1c(F)cc(F)cc1F" ?
Result: 30
